- assayed.target: T1, Full length human CD98hc on CHO cells (human)
- T1 construct: CHO cells stably overexpressing it; also called CHO-human CD98hc; CHO-huCD98hc
- T1 chain: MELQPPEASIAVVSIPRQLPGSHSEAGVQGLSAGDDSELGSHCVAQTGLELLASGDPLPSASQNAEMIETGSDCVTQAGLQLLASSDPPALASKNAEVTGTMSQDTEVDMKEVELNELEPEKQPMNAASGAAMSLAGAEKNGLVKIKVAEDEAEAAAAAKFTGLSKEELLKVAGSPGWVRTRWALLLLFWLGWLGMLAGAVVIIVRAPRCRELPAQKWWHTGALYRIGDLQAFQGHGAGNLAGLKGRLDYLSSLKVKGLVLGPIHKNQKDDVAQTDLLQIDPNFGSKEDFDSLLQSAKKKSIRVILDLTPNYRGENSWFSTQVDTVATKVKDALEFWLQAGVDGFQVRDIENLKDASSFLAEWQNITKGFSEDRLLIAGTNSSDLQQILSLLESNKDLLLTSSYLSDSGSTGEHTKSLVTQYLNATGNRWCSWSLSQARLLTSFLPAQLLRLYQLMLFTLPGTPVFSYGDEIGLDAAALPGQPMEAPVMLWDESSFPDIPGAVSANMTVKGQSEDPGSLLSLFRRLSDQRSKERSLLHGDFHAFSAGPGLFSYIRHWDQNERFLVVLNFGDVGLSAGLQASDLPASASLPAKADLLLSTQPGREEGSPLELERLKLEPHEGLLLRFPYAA
- assay.notes: FACS, hybridoma supernatant
measured.property: MFI ratio over secondary antibody
Respond with the number and no other words.

Given the entry CD98HC.03.002 (antibody, V domains shown, hybridoma IgG) VH: DVQLVESGGGLVQPGGSRKLSCAASGFTFSTFGMHWVRQAPEKGLEWVAYISGGSTNIYYADTVKGRFTISRDNPKNTLFLQMTSLRSEDTAMYYCARETTLLATNFDYWGQGTTLTVSS VL: DIQMTQTTSSLSASLGDRVTISCRASQDISNYLNWYQQKPDGTVKLLIYYTSRLHSGVPSRFSGSGSGTDYSLTISNLEQEDIATYFCQQGSTLPRTFGGGTKLEIK , report its measured MFI ratio over secondary antibody.
28.5

Given the entry CD98HC.04.003 (antibody, V domains shown, hybridoma IgG) VH: QVQLQQSGAELAKPGASLKMSCKASGYTFTDYYIHWVKQRPGQDLEWIGYINPNSAYTDSNQKFKDKATLTADKSSNTAYMQLSSLTSEDSAVYYCARKGHFYAPSFAYWGQGTLVTVSA VL: DIQMTQTTSSLSASLGDRVTISCRASQDISNYLNWYQQKPDGTVKLLIYYTSRLHSGVPSRFSGSGSGADYSLTISNLQQEDIATYFCQQGDTLPYTFGGGTKLEIE , report its measured MFI ratio over secondary antibody.
3.2

Given the entry CD98HC.04.018 (antibody, V domains shown, hybridoma IgG) VH: QIQLVQSGPELKKPGETVKISCKASGYTFRNYGMNWVKQAPGKGLKWMGWINTYTGEPTYAEDFKGRFAFSLETSASTAYLQINKLKNEDEATYFCARGEAHWYFDVWGAGTTVTVSS VL: QIVLTQSPAIMSASLGERVTMTCTASSSVSSSYLYWYQQKPGSSPKLWIYSIFNLASGVPARFSGSGSGTSYSLTISSMEAEDAATYYCHQYHRSPPTFGGGTKLEIK , report its measured MFI ratio over secondary antibody.
50.3

Given the entry CD98HC.04.006 (antibody, V domains shown, hybridoma IgG) VH: EVNLVESGGDLVQPGGSLRLSCATSGFTFTDYFMSWVRQPPGKALEWLGFIRNKAYGYTTEYSASVKGRFTISRDNSQSIFYLQMNTLRLEDSATYYCARGPFISTAPFAYWGQGTLVTVSA VL: DIVMSQSPSSLAVSVGETVTMSCKSSQSLLYSSNQKNYLAWYQQKPGQSPKLLIYWGSTRESGVPDRFTGSGSGTDFTLTISSVKAEDLAVYYCQHYYGYPWTFGGGTKLEIK , report its measured MFI ratio over secondary antibody.
39

Given the entry CD98HC.03.010 (antibody, V domains shown, hybridoma IgG) VH: EVQLQQSGTELVKPGASVKLSCTASGLDIKDTYLHWVKQRPEQGLEWIGKIDPANGNTKYNPKFQGKATITADTSSNTAYLQLSSLTSEDTAVHYCTTPYYSGSSYGDYWGQGTTLTVSS VL: QIVLTQSPAIMSASPGEKVTLTCSASSSVSSSYLYWYQQKPGSSPKLWIYSTSNLASGVPARFSGSGSGTSYSLTISSMEAEDAASYFCHQWSRYPLTFGAGTKLELK , report its measured MFI ratio over secondary antibody.
25.8
